Entries and their measured apparent KD of MS2 coat protein follow.
# Test system: MS2 coat protein
# assayProcedure: apparent KD of MS2 coat protein; higher = weaker reporter binding
# testConditions: Eterna round: R107; input ligand: none
Give your result in µM as a bare value.

# biopolymerSequence, measurementType, endpointValue
measured = [
    ("UGUAUGUGAUCUGAUACCAGUCCAACUGGUAAAACCUGAGGAACACCCAGGUAAAAUUGGGACCCUUGGCAGCAGAUCGCAUACU", "apparent KD of MS2 coat protein", 0.246),
]

Incoming: Identify measured apparent KD of MS2 coat protein obtained with MS2 coat protein for UGUAUGUGAUUUGAUACCAGACCAGCUGGUGGUACAUGAGCAUCAGCCAUGUAGGUUUGGGUCCCUUGGCAGCAAAUCGCAUACU [SS Theo B #24 Ms2] .
Outgoing: 0.021

Incoming: Identify measured apparent KD of MS2 coat protein obtained with MS2 coat protein for CUGGACAUGAGGAUCACCCAUGUAAAUCCUCGAGGACCGGUACGGCCGCCACUCGAACGAGUGGCACGCGAGUGCGCACUCGCGU [aLa] .
Outgoing: 0.0298
